# IC50 listing for each entry below
Molecular target: PI3K α (Homo sapiens (Human))
Experiment: PI3-Kinase in vitro IC50 assay, α isoform

Some entries whose results are on file:
>  <molecule>
C[C@H](NC(=O)c1c(N)nn2cccnc12)c1oc2cccc(C#Cc3cnn(C)c3)c2c(=O)c1-c1ccccc1 [Compound 103S]

>  <assay-endpoint>
IC50

>  <measured-result>
5 to 10 µM

$$$$
>  <molecule>
C[C@H](NC(=O)c1c(N)nn2cccnc12)c1cc2cccc(C#Cc3cnn(C)c3)c2nc1-c1ccccc1 [Compound 175S]

>  <assay-endpoint>
IC50

>  <measured-result>
5 to 10 µM

$$$$

Okay, now this molecule:
Quick one: IC50 of CC(NC(=O)c1c(N)nn2cccnc12)c1oc2cccc(C#Cc3cnn(C)c3)c2c(=O)c1-c1ccccc1 (stereo not drawn) [Compound 103] ?
5 to 10 µM

---

# IC50 listing for each entry below
Target: p110 δ (Homo sapiens (Human), UniProt O00329)
Sequence (O00329 whole entry): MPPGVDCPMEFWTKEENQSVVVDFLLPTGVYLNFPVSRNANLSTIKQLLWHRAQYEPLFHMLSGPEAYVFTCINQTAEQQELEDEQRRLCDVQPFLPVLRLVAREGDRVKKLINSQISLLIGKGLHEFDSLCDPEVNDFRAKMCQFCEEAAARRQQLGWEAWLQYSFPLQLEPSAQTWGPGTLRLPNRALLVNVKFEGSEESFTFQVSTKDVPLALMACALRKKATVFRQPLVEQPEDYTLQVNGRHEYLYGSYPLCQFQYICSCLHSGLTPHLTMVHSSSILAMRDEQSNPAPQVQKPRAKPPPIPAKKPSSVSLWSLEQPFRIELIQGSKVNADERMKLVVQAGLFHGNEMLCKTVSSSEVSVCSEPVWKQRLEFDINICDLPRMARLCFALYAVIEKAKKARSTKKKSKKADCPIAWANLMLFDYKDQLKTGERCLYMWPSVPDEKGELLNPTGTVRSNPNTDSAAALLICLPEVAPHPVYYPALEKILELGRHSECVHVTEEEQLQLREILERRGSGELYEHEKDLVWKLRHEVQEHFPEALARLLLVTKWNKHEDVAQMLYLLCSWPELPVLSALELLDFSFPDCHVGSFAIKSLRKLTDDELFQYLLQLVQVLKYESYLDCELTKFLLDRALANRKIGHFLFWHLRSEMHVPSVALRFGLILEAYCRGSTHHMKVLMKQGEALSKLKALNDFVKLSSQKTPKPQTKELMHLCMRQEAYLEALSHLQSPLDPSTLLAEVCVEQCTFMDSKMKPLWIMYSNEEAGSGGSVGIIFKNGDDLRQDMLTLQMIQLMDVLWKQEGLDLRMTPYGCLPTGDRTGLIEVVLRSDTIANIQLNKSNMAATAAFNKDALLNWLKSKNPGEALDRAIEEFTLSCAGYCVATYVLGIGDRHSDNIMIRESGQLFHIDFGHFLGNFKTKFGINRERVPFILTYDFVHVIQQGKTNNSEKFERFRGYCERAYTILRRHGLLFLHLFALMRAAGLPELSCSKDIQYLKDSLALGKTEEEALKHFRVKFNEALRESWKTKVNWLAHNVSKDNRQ
Sequence (P27986 whole entry partner): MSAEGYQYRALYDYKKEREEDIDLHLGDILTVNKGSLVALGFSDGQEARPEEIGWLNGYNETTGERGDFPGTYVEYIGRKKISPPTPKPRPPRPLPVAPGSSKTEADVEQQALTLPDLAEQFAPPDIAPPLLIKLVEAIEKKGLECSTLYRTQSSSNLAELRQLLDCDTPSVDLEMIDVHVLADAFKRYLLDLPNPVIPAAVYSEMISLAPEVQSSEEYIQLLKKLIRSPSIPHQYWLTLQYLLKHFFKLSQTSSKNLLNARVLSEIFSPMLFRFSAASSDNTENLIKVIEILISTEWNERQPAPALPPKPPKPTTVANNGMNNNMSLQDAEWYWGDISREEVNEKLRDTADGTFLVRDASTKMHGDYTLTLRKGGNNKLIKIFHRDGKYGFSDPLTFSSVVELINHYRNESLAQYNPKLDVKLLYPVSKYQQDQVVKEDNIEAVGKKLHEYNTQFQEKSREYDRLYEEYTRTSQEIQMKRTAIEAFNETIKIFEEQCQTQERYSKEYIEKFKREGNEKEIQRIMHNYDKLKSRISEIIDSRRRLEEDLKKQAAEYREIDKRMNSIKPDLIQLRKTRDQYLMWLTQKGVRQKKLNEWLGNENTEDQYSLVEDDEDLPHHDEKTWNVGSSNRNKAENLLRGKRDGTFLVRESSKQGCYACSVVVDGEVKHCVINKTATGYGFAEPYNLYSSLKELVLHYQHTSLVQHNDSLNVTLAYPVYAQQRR
Test: RAJI p110 δ assay (PI3K-δ selective cellular assay, phospho-AKT)
Settings: RAJI cells stimulated with anti-human IgM

Quick one: IC50 of CC(NC(=O)c1c(N)nn2cccnc12)c1oc2cccc(C#Cc3cnn(C)c3)c2c(=O)c1-c1ccccc1 (stereo not drawn) [Compound 103] ?
1 to 10 µM

Moving on to the next compound: C[C@H](NC(=O)c1c(N)nn2cccnc12)c1cc2cccc(C#Cc3cnn(C)c3)c2nc1-c1ccccc1 [Compound 175S]
0.1 to 0.5 µM

Moving on to the next compound: C[C@@H](NC(=O)c1c(N)nn2cccnc12)c1oc2cccc(C#Cc3cnn(C)c3)c2c(=O)c1-c1ccccc1 [Compound 103R]
1 to 10 µM

---

# pIC50 listing for each entry below
Biological target: PI3K α (Homo sapiens (Human), UniProt P42336)
Sequence (P42336 whole entry, one chain of several, canonical isoform): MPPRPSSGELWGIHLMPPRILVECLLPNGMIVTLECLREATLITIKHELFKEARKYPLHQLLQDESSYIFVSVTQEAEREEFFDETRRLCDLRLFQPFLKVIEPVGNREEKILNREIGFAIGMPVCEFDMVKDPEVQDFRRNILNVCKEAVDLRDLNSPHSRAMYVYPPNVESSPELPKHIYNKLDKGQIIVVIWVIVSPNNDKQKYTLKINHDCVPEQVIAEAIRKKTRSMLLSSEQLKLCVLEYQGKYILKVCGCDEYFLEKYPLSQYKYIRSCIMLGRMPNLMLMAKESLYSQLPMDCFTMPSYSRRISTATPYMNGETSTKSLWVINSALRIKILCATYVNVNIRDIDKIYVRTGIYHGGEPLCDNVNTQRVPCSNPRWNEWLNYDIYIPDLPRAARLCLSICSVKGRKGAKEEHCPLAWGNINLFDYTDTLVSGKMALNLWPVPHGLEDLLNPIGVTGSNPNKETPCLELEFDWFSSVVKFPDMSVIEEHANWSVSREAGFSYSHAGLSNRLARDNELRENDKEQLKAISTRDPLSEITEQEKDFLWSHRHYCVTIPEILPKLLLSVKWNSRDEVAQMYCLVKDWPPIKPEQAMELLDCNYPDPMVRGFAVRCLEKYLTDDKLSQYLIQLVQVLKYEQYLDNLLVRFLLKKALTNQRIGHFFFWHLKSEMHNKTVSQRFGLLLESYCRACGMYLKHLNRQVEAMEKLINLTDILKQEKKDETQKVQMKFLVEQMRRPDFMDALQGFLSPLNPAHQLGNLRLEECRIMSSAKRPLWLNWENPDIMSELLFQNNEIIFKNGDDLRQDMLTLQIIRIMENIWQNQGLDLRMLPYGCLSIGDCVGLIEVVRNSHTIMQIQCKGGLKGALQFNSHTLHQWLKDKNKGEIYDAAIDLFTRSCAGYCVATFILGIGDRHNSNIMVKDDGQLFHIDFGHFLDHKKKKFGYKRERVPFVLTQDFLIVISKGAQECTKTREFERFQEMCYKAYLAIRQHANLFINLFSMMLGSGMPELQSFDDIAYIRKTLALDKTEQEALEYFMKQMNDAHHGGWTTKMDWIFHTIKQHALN
Assay: PI3-Kinase in vitro IC50 assay, α isoform
pIC50: −log10 of the molar value.

Quick one: pIC50 of C[C@@H](NC(=O)c1c(N)nn2cccnc12)c1nc2cccc(C#Cc3cnn(C)c3)c2cc1-c1ccccc1 [Compound 181R] ?
5.00 to 5.30

Moving on to the next molecule: C[C@@H](NC(=O)c1c(N)nn2cccnc12)c1cc2cccc(C#Cc3cnn(C)c3)c2nc1-c1ccccc1 [Compound 175R]
5.00 to 5.30

Moving on to the next molecule: C[C@H](NC(=O)c1c(N)nn2cccnc12)c1nc2cccc(C#Cc3cnn(C)c3)c2cc1-c1ccccc1 [Compound 181S]
5.00 to 5.30

Moving on to the next molecule: C[C@@H](NC(=O)c1c(N)nn2cccnc12)c1oc2cccc(C#Cc3cnn(C)c3)c2c(=O)c1-c1ccccc1 [Compound 103R]
5.00 to 5.30

---

Biological target: p110 γ (Mus musculus (Mouse), UniProt Q9JHG7)
Sequence (Q9JHG7 whole entry): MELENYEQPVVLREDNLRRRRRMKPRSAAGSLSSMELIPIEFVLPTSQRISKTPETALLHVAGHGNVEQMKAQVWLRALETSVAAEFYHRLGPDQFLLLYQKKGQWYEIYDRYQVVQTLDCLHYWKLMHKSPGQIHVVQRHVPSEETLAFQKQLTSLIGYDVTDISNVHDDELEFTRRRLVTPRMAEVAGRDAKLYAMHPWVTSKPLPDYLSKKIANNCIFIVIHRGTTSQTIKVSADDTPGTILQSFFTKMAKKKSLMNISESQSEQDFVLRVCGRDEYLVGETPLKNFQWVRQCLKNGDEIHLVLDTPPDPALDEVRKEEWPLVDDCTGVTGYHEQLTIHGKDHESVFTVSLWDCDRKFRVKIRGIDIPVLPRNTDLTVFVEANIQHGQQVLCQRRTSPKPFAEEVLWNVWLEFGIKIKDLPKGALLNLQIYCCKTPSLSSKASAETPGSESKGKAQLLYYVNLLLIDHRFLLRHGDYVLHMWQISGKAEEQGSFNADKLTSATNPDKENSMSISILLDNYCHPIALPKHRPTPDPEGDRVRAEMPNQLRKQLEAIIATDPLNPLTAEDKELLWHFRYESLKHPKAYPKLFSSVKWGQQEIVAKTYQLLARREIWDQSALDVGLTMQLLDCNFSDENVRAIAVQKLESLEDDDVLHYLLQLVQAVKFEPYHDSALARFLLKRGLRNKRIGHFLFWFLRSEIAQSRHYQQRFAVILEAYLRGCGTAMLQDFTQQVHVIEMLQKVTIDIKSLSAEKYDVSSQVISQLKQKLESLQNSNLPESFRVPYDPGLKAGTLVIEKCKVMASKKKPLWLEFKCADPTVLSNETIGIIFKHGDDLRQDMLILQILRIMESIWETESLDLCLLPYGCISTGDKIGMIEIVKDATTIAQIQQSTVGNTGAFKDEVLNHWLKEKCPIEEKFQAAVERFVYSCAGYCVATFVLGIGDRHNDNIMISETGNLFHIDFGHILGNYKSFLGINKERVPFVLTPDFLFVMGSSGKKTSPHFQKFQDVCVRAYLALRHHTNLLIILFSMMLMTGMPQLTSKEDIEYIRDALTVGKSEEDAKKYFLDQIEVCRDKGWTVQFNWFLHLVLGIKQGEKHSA
Assay: Raw264.7 p110 γ assay (PI3K-γ selective cellular assay, phospho-AKT)
Format: cell-based
Conditions: ratio of RAJI p110 δ IC50 to Raw264.7 p110 γ IC50

>  <compound>
C[C@H](NC(=O)c1c(N)nn2cccnc12)c1oc2cccc(C#Cc3cnn(C)c3)c2c(=O)c1-c1ccccc1 [Compound 103S]

>  <RAJI δ/Raw264.7 γ IC50 (selectivity)>
Y (Y = 50 to <850)

$$$$
>  <compound>
C[C@H](NC(=O)c1c(N)nn2cccnc12)c1nc2cccc(C#Cc3cnn(C)c3)c2cc1-c1ccccc1 [Compound 181S]

>  <RAJI δ/Raw264.7 γ IC50 (selectivity)>
Y (Y = 50 to <850)

$$$$
>  <compound>
CC(NC(=O)c1c(N)nn2cccnc12)c1oc2cccc(C#Cc3cnn(C)c3)c2c(=O)c1-c1ccccc1 (stereo not drawn) [Compound 103]

>  <RAJI δ/Raw264.7 γ IC50 (selectivity)>
X (X = 10 to <50)

$$$$
>  <compound>
C[C@@H](NC(=O)c1c(N)nn2cccnc12)c1oc2cccc(C#Cc3cnn(C)c3)c2c(=O)c1-c1ccccc1 [Compound 103R]

>  <RAJI δ/Raw264.7 γ IC50 (selectivity)>
X (X = 10 to <50)

$$$$
